test system: Escherichia coli; test: Antibacterial activity against Escherichia coli ATCC 35218 after 24 hrs by MTT assay; type: functional; settings: ATCC 35218, 24 h
Kindly state MIC for each of the entries shown.

smiles-string: CCOC(=O)/C(=C\Nc1ccc(Br)cc1Br)c1ccc(Cl)cc1
target-of-assay: Escherichia coli
MIC: > 50 µg/mL
//
smiles-string: CCOC(=O)/C(=C\Nc1ccc(Cl)cc1Cl)c1ccc(Cl)cc1
target-of-assay: Escherichia coli
MIC: > 50 µg/mL

What measured MIC goes with CCOC(=O)/C(=C\Nc1ccc(F)cc1)c1ccc(Cl)cc1 ?
43.4 µg/mL

These measurements were taken from ChEMBL document CHEMBL1156708.
